Each recorded value in this set is attributed to the supplement of paper PMC11316812.

tested on: hTERT-HMEC; experiment: percentage of EdU-negative (G0-arrested) nuclei per well, 72 h; higher = more G0 arrest; settings: protein concentration 0.225 µM; reference: sequence is the full UniProt precursor, the tested protein was the secreted form or ectodomain;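 note: secreted proteins added to cultured cells, EdU pulse at the end, nuclei found by Hoechst imaging, EdU status from nuclear versus surrounding ring intensity ratio, PBS as neutral control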
QUANTITY_NAME: percentage of EdU-negative (%)
Just the number in %, nothing appended.

Input: Would you mind telling me what percentage of EdU-negative value was observed for MSEEVTYADLQFQNSSEMEKIPEIGKFGEKAPPAPSHVWRPAALFLTLLCLLLLIGLGVLASMFHVTLKIEMKKMNKLQNISEELQRNISLQLMSNMNISNKIRNLSTTLQTIATKLCRELYSKEQEHKCKPCPRRWIWHKDSCYFLSDDVQTWQESKMACAAQNASLLKINNKNALEFIKSQSRSYDYWLGLSPEEDSTRGMRVDNIINSSAWVIRNAPDLNNMYCGYINRLYVQYYHCTYKKRMICEKMANPVQLGSTYFREA [Q5QGZ9] ?
Output: 4.99

Input: Would you kindly repeat that for `MAWMLLLILIMVHPGSCALWVSQPPEIRTLEGSSAFLPCSFNASQGRLAIGSVTWFRDEVVPGKEVRNGTPEFRGRLAPLASSRFLHDHQAELHIRDVRGHDASIYVCRVEVLGLGVGTGNGTRLVVEKEHPQLGAGTVLLLRAGFYAVSFLSVAVGSTVYYQGKCLTWKGPRRQLPAVVPAPLPPPCGSSAHLLPPVPGG` ?
Output: 4.92
